Target: Peroxisome proliferator-activated receptor gamma (Homo sapiens, UniProt P37231)
Sequence (P37231 whole entry): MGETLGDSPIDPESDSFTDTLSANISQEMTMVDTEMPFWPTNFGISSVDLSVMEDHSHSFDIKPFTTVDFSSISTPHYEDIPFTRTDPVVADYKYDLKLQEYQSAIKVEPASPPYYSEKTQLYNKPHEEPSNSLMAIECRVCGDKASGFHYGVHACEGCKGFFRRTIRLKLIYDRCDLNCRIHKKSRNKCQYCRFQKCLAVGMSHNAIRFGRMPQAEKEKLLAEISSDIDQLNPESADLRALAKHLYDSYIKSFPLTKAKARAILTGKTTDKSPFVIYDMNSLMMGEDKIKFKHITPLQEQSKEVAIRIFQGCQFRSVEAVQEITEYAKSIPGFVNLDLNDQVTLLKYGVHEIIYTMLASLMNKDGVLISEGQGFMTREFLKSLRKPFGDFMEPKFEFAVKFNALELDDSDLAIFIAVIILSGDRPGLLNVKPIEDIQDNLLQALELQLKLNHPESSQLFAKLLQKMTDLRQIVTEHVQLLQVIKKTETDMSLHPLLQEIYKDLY
observed-property: log10(EC50) (log10 of the value in nM)
On a log10 scale: recorded EC50, unit nM.

The molecule listed as COC(=O)[C@H](Cc1ccc(OCc2ccccc2)cc1)/N=C(C)/C=C(\O)c1ccccc1 shows log10(EC50) equal to 2.84

The molecule listed as Cc1c(C)c2c(c(C)c1O)CCC(C)(COc1ccc(C[C@H](Nc3ccccc3C(=O)c3ccccc3)C(=O)O)cc1)O2 (stereo partly specified) shows log10(EC50) equal to 0.96

Form: molecule = Cc1oc(-c2ccccc2)nc1CCOc1ccc(CC2SC(=O)NC2=O)cc1 (stereo unspecified) ; log10(EC50) = 0.50

# log10(EC50) (molecule: CN(CCOc1ccc(CC(Oc2ccccc2C(=O)c2ccccc2)C(=O)O)cc1)c1nc2ccccc2o1 (stereo unspecified) ) is 2.97

log10(EC50) in this record for CN(CCOc1ccc(CC(Nc2ccccc2/C(=N/N)c2ccccc2)C(=O)O)cc1)c1ccccn1 (stereo unspecified) : 2.93

The molecule O=C(O)[C@H](Cc1ccc(OCc2ccccc2)cc1)/N=C1\CCCC\C1=C(\O)c1ccccc1 showed log10(EC50) equal to 4.01

log10(EC50) reading for CC1(COc2ccc(C[C@H](Nc3ccccc3C(=O)c3ccccc3)C(=O)O)cc2)CCCCC1 : 2.79

Just so you know, measured log10(EC50) for CN(CCOc1ccc(CC(Nc2ccccc2C(=O)Cc2ccccc2)C(=O)O)cc1)c1nc2ccccc2o1 (stereo unspecified) came out at 1.46

The molecule listed as CN(CCOc1ccc(CC(Nc2ccccc2S(=O)(=O)c2ccccc2)C(=O)O)cc1)c1nc2ccccc2o1 (stereo unspecified) has a reported log10(EC50) of 3.26

Looking up CN(CCOc1ccc(CC(Nc2ccccc2C(O)c2ccccc2)C(=O)O)cc1)c1ccccn1 (stereo unspecified) , I see its log10(EC50) listed as 2.65

Consider CN(CCOc1ccc(C[C@H](Nc2ccccc2C(=O)c2ccccc2)C(=O)O)cc1)c1nc2ccccc2o1 . Its measured log10(EC50) is 0.42

CN(CCOc1ccc(CC(Nc2cccc3c2C(=O)c2ccccc2C3=O)C(=O)O)cc1)c1nc2ccccc2o1 (stereo unspecified) has a reported log10(EC50) of 0.70

Sure, the documented log10(EC50) for CN(CCOc1ccc(CC(Nc2cccc3c2C(=O)c2ccccc2-3)C(=O)O)cc1)c1nc2ccccc2o1 (stereo unspecified) is 2.69

Recorded log10(EC50) (molecule CN(CCOc1ccc(CC(Nc2ccccc2Oc2ccccc2)C(=O)O)cc1)c1nc2ccccc2o1 (stereo unspecified) ): 2.03

// log10(EC50) value for CC(/C=C(\O)c1ccccc1)=N\[C@@H](Cc1ccc(OCc2ccccc2)cc1)C(N)=O : 2.69

For record N[C@@H](Cc1ccc(OCc2ccccc2)cc1)C(=O)O the listed log10(EC50) is 3.40

The reported value for CC(/C=C(\O)c1ccccc1)=N\[C@@H](Cc1ccc(OCc2ccccc2)cc1)C(=O)O (stereo in doubt; 2) in terms of log10(EC50) is 2.36

log10(EC50) measured on CN(CCOc1ccc(CC(Sc2ccccc2C(=O)c2ccccc2)C(=O)O)cc1)c1nc2ccccc2o1 (stereo unspecified) = 3.14

Entry O=C(c1ccccc1)c1ccccc1N[C@@H](Cc1ccc(OCc2ccccc2)cc1)C(=O)O ; log10(EC50) = 4.22

Entry CC(/C=C(\O)c1ccccc1)=N\[C@@H](Cc1ccc(OCc2ccccc2)cc1)C(=O)O (stereo in doubt) ; log10(EC50) = 4.34

The value of log10(EC50) measured for the molecule CCc1ccc(CCOc2ccc(C[C@H](Nc3ccccc3C(=O)c3ccccc3)C(=O)O)cc2)nc1 turned out to be 1.70

// data source = ChEMBL document CHEMBL1131422
